experiment: small-molecule binders of probe aNOTCH2, primary screen, biochemical, small-molecule microarray, 635/667 nm fluorescence (AID 1121); conditions: higher = more signal;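 also: score merges feature fluorescence read at 667 nm with its signal to noise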
If the reported composite z-score equals or exceeds -0.04, assign met. If not, assign not met.

| molecule | answer-label |
| --- | --- |
| [N-]=[N+]=NCc1ccccc1C[C@]1(C(=O)NCCN2CCOCC2)N=C(c2ccc(OCCCO)cc2)O[C@H]1c1ccccc1N=[N+]=[N-] | met |
| CCOC(=O)C[C@H]1[C@H](OC(=O)c2ccc(-c3ccccc3)cc2)[C@@H](NC(=O)c2ccc(-c3ccccc3)cc2)c2cc(OCCCO)ccc2N1C(=O)Cc1ccc(OC)cc1 | not met |
| [N-]=[N+]=Nc1ccccc1[C@@H]1OC(c2ccc(OCCCO)cc2)=N[C@]1(CCS(=O)(=O)c1ccccc1)C(=O)N1CCOCC1 | met |
| COC(=O)[C@@]1(Cc2ccc(OC)cc2)[C@H]2c3cc(C(=O)N(C)C)n(Cc4c(OC)[nH]cc(C)c4=O)c3C[C@H]2CN1C(=O)c1ccccc1 | met |
| C=CCC(OC(C)=O)[C@@H]1[C@@H](N(Cc2cc3ccccc3o2)C(=O)c2ccc(C)cc2)c2cc(OCCCO)ccc2N1C(=O)c1ccc2ccccc2c1 (stereo partly specified) | not met |
